Assay: NCI Yeast Anticancer Drug Screen. Data for the mlh1 rad18 strain (AID 175)
Settings: S. cerevisiae mlh1 rad18 strain growth inhibition; at 50.0 µM; active compounds read high
This is part of a sample that, as a whole, favours compounds with a hit. Of some 79,000 tested, about 15% had one in any assay.
Listing of entries alongside the reported growth inhibition.
Provide the reading as a plain figure in %.

*Q* Fill blank: measured growth inhibition of the molecule `CCOC(=O)c1ccc(Nc2sc(C(=O)c3cccc([N+](=O)[O-])c3)c(N)c2C#N)cc1` is ____.
*A* 0.55

*Q* Then this molecule: COc1ccc(Oc2c(I)cc(CC(NC(C)=O)C(=O)O)cc2I)cc1 (stereo not drawn)
*A* 49.7

*Q* Then this molecule: `COc1ccc(/C=C/c2cccc[n+]2C)cc1`
*A* -11.2

*Q* Then this molecule: `C#CCSc1nnnn1-c1ccc(Br)c(C)c1`
*A* 7.1

*Q* Then this molecule: `O=C(c1ccccc1)C1CCC1`
*A* 6.75

*Q* Then this molecule: `Cc1c(O)cnc2nn(-c3ccccc3)c(=N)n12`
*A* 12.9

*Q* Then this molecule: CC(CC(=O)c1ccccc1)c1ccccc1 (stereo not drawn)
*A* 10.2

*Q* Then this molecule: `COc1ccc(/C(C#N)=C2C=C/C(=N/O)c3ccccc3\2)cc1`
*A* 19.9

*Q* Then this molecule: `COc1cc(CCN=Cc2ccccc2O)c([N+](=O)[O-])cc1OC`
*A* -2.35

*Q* Then this molecule: COC(=O)CCCCC1=CCC2C(=O)C=C(O)C2C1 (stereo not drawn)
*A* -18.8

###

Listing of entries alongside the reported growth inhibition.
Experiment: NCI Yeast Anticancer Drug Screen. Data for the cln2 rad14 strain (AID 165);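 further: 0% = growth equal to vehicle treated cultures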
Conditions: S. cerevisiae cln2 rad14 strain, at 50.0 µM, active compounds read high
Method: Growth inhibition of yeast strains with defined genetic alterations is measured as a screen for potential anti-cancer activity. Selected strains with alterations in DNA damage repair or cell cycle control were exposed to compounds and growth inhibition was measured relative to vehicle treated controls. The strain used in this assay is cln2 rad14
This is part of a sample that, as a whole, favours compounds with a hit. Of some 79,000 tested, about 15% had one in any assay.
Provide the reading as a plain figure in %.

Before answering, review these 4 worked examples.
1) O=c1c2ccccc2c(Br)c(Br)c2ccccc12: 3.3
2) O=C1Cc2ccccc2C(=O)O1: -22.1
3) O=c1[nH]c(O)c(/C=C2/C=Nc3ccccc32)[nH]1: -15.2
4) CCOC(=O)CCCS(C)(=O)=O: -17.9

*Q* Fill blank: measured growth inhibition of the compound `CCOC(=O)c1[nH]c(C)c(C(=O)O)c1C` is ____.
*A* -24.9

###

Experiment: NCI Yeast Anticancer Drug Screen. Data for the cln2 rad14 strain (AID 165);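 further: 0% = growth equal to vehicle treated cultures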
Conditions: S. cerevisiae cln2 rad14 strain, at 50.0 µM, active compounds read high
Compounds without any hit were thinned out: in the full panel of roughly 79,000, 15% have a hit.
attribute.measured: growth inhibition (%)
Provide the reading as a plain figure in %.

*Q* Fill blank: measured growth inhibition of the compound `C=CCCCCCCCCCOC(C)=O` is ____.
*A* -9.5

*Q* Then this compound: CC(=O)OCC1OC(OC2=C(CC=C(C)C)C(=O)c3ccccc3C2=O)C(OC(C)=O)C(OC(C)=O)C1OC(C)=O (stereo not drawn)
*A* -15

*Q* Then this compound: `N#CC1(Nc2ccc3c4c(cccc24)CC3)CCCCC1`
*A* 16

*Q* Then this compound: `Cc1cc(C)cc(NCCC#N)c1`
*A* -1.75

*Q* Then this compound: `O=c1cc2oc3cc(O)c(O)cc3c(-c3ccccc3O)c-2cc1O`
*A* 32.3

*Q* Then this compound: CC(=O)OCC1CCCO1 (stereo not drawn)
*A* -44.1

*Q* Then this compound: `Cc1cc2nc(CO)[nH]c2cc1C`
*A* 7.55

*Q* Then this compound: CC(C(=O)O)(C1CCCCC1)C1(O)CCCCC1 (stereo not drawn)
*A* 59.5

###

Assay: NCI Yeast Anticancer Drug Screen. Data for the mec2-1 strain (AID 157)
Settings: S. cerevisiae mec2-1 strain, at 50.0 µM, active compounds read high
About 79,000 compounds went through this panel and 15% of them were active in at least one assay; those are over-represented in the sample as a whole.
Listing of entries alongside the reported growth inhibition.
Provide the reading as a plain figure in %.

Before answering, review these 3 worked examples.
1. CCCCC1(CC)COC(CCC)OC1 (configuration not stated): 2.15
2. CC(=Nc1ccccc1)C1=C(O)C(Cc2cccc(F)c2)NC1=O (configuration not stated): 4.35
3. CCOC(=O)C(O)C(O)C(=O)OCC (configuration not stated): -15.8

*Q* Fill blank: measured growth inhibition of the molecule `Cc1c(O)cccc1O` is ____.
*A* -17.4

*Q* Then this molecule: `Cc1ccc(CCCC(=O)O)c(C)c1`
*A* -0.25

###

Assay: NCI Yeast Anticancer Drug Screen. Data for the mec2-1 strain (AID 157)
Conditions: S. cerevisiae mec2-1 strain, at 50.0 µM, active compounds read high
About 79,000 compounds went through this panel and 15% of them were active in at least one assay; those are over-represented in the sample as a whole. Active and inactive are the calls of the source. Rule as the data show it: active = growth inhibition above about 70%; inactive = the rest.
Listing of entries alongside the reported growth inhibition.

1) Cc1ccc(/C(C#N)=C/c2ccc3c(c2)OCO3)cc1: 25.5% (inactive)
2) CN(C)Cc1cc(C(C)(C)CC(C)(C)C)ccc1O: -3.2% (inactive)
3) CC(=O)C1CCCCC1: 11.2% (inactive)
4) O=[N+]([O-])c1ccc(Sc2ccncn2)c([N+](=O)[O-])c1: 16.6% (inactive)
5) Nc1nc(OCc2ccccc2)c2[nH]cnc2n1: -0.15% (inactive)

*Q* Fill blank: measured growth inhibition of the molecule CCC(C)(O)c1ccc(C)cc1 (configuration not stated) is ____.
*A* 33% (inactive)

*Q* Then this molecule: `COc1cc2nc3cc([N+](=O)[O-])ccc3c(Cl)c2cc1OC`
*A* -20.9% (inactive)

*Q* Then this molecule: `COc1cc(CCN=Cc2ccccc2O)c([N+](=O)[O-])cc1OC`
*A* -10.5% (inactive)

*Q* Then this molecule: O=C(OCC(O)C1OC(c2ccccc2)OC(COC(=O)c2ccccc2)C1O)c1ccccc1 (configuration not stated)
*A* 4.85% (inactive)

*Q* Then this molecule: `O=C(Nc1cc(-c2ccccc2)[nH]n1)c1ccc(Cl)cc1`
*A* -21.1% (inactive)

*Q* Then this molecule: `CCCCNC1(C#N)CCN(Cc2ccccc2)CC1`
*A* -7.95% (inactive)

*Q* Then this molecule: `C/C(=C\c1ccc([N+](=O)[O-])cc1)C(=O)O`
*A* 23.1% (inactive)

###

Listing of entries alongside the reported growth inhibition.
Experiment: NCI Yeast Anticancer Drug Screen. Data for the cln2 rad14 strain (AID 165);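 further: 0% = growth equal to vehicle treated cultures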
Conditions: S. cerevisiae cln2 rad14 strain, at 50.0 µM, active compounds read high
This is part of a sample that, as a whole, favours compounds with a hit. Of some 79,000 tested, about 15% had one in any assay.
Provide the reading as a plain figure in %.

Before answering, review these 5 worked examples.
1. COc1cc(OC)c2ccc(=O)oc2c1: 6.75
2. CC1Cc2ccccc2O1 (stereo not drawn): -2.35
3. COc1cc2cc(c1Cl)N(C)C(=O)C[C@H](OC(=O)[C@H](C)N(C)C(C)=O)[C@]1(C)O[C@H]1[C@H](C)[C@@H]1C[C@@](O)(NC(=O)O1)[C@H](OC)C=C/C=C(\C)C2: 14.1
4. CC(C)CCCC(=O)O: 27.8
5. C=CC[N+](C)(C)C: 7.7

*Q* Fill blank: measured growth inhibition of the molecule `CCOC(=O)CNN` is ____.
*A* 9.75

*Q* Then this molecule: `Cc1cc(Cc2cc(C)c(N)cc2N)c(N)cc1N`
*A* 15.2

*Q* Then this molecule: `C[C@@H](c1ccccc1)[C@@H](C(=O)O)c1ccccc1`
*A* -38.6

*Q* Then this molecule: `O=C(c1ccccc1)C1CCC1`
*A* -17.5

*Q* Then this molecule: `CN(C)C(C)(C)CC(C)(C)C`
*A* 4.85

*Q* Then this molecule: `CCn1c(=O)n(C)c2c(=O)n(C)c(=O)n(C)c21`
*A* 1

*Q* Then this molecule: `COCCOC(=O)c1ccc(C(C)C)cc1`
*A* -9.35

*Q* Then this molecule: `O=C(c1ccc(O)cc1)c1ccc(O)cc1`
*A* -49.1

###

Assay: NCI Yeast Anticancer Drug Screen. Data for the mec2-1 strain (AID 157)
Conditions: S. cerevisiae mec2-1 strain, at 50.0 µM, active compounds read high
About 79,000 compounds went through this panel and 15% of them were active in at least one assay; those are over-represented in the sample as a whole.
attribute.measured: growth inhibition (%)
Provide the reading as a plain figure in %.

Before answering, review these 3 worked examples.
1) CC1(C)N=C(N)N=C(N)N1c1cccc(Br)c1: -14.4
2) Cc1nc2c(ccc3ccccc32)s1: -5.35
3) CC(=O)Cc1ccc(-c2ccccc2)cc1: 14.8

*Q* Fill blank: measured growth inhibition of the compound C/C=C/CC(C)C(O)C1C(=O)NC(CC)C(=O)N(C)CC(=O)N(C)C(CC(C)C)C(=O)NC(C(C)C)C(=O)N(C)C(CC(C)C)C(=O)NC(C)C(=O)NC(C)C(=O)N(C)C(CC(C)C)C(=O)N(C)C(CC(C)C)C(=O)N(C)C(C(C)C)C(=O)N1C (stereo unspecified) is ____.
*A* 8.3

*Q* Then this compound: COc1cc(C2NC(=O)C(C#N)=C(Nc3cccc(C)c3)S2)ccc1O (stereo unspecified)
*A* -18.8

*Q* Then this compound: O=C1OC(c2ccc(F)cc2)CC1CN1CCOCC1 (stereo unspecified)
*A* 12.6

*Q* Then this compound: `CC1=CC(C)(C)NC(=S)N1c1ccc(S(=O)(=O)O)c2cccc(S(=O)(=O)O)c12`
*A* -5.25

*Q* Then this compound: `C=CCc1cc(C(C)=O)cc(OC)c1O`
*A* -6.7

*Q* Then this compound: `CCCCNC(=O)C(=O)NCCCC`
*A* 7.2

*Q* Then this compound: `Cc1c(O)cnc2nn(-c3ccccc3)c(=N)n12`
*A* 11.4

*Q* Then this compound: Oc1ccc2c(c1)OCC1(O)Cc3cc(O)c(O)cc3C21 (stereo unspecified)
*A* -2.4

*Q* Then this compound: `O=[N+]([O-])c1cccc2nsnc12`
*A* 30.6
